Target: hSULT1A1 (Homo sapiens, UniProt P50225)
Construct: 6-histidine tag (N); TEV site (N)
Sequence (P50225 whole entry): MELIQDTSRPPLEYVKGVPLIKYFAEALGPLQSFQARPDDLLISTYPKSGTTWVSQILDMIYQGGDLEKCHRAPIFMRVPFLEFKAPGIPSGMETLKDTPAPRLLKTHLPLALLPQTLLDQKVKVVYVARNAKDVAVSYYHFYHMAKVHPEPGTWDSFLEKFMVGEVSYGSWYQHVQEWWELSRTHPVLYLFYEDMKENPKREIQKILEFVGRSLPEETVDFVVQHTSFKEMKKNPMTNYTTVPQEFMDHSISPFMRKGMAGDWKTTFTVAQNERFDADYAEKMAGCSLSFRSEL
Experiment: Fluorescence-based microplate inhibition assay, hSULT1A1-catalyzed HN-241 4-O-sulfation;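 also: reaction started with 200 µM PAPS at 37 °C, fluorescence read continuously (Ex 350 nm, Em 450 nm), activity expressed relative to DMSO-only control without inhibitor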
Details: hSULT1A1-catalyzed HN-241 4-O-sulfation
measureName: IC50 (µM)
Give the value, in units of µM, as a plain number.

[Q] I am curious: what IC50 value has been reported for O=c1cc(-c2ccccc2)oc2cc(O)c(O)c(O)c12 ?
[A] 0.0452

New cases:
[Q] I am curious: what IC50 value has been reported for Cc1cc(O)c2c(c1)C(=O)c1cc(O)cc(O)c1C2=O ?
[A] 0.0765

[Q] I am curious: what IC50 value has been reported for COc1c(/C=C/C(=O)c2ccc(O)c(CC=C(C)C)c2)ccc(O)c1O ?
[A] 0.00537

[Q] I am curious: what IC50 value has been reported for COc1ccc(-c2cc(=O)c3c(O)c(OC)c(O)cc3o2)cc1 ?
[A] 0.00952

[Q] I am curious: what IC50 value has been reported for O=c1cc(-c2ccc(Oc3c(O)cc4oc(-c5ccc(O)cc5)cc(=O)c4c3O)cc2)oc2cc(O)cc(O)c12 ?
[A] 0.0189
